Every entry's value here was drawn from PubChem BioAssay (Tox21).

Biological target: Gonadotropin-releasing hormone receptor (Homo sapiens) (UniProt P30968)
Sequence (P30968 whole entry, looked up): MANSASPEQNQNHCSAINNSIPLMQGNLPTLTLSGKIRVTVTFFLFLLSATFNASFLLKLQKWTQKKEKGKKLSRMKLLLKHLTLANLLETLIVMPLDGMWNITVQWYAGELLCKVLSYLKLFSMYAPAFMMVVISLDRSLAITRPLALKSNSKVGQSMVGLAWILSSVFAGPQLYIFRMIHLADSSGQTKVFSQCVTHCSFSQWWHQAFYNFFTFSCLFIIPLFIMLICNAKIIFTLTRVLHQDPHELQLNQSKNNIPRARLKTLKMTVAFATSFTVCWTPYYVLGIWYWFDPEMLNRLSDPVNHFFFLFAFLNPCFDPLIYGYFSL
Assay: Human gonadotropin-releasing hormone receptor (GnRHR) small molecule agonists, calcium flux assay in GnRHR-HEK293 cells (AID 1920063); also: nearly all actives have a fitted effect of over 35% in size
Conditions: calcium flux fluorescence, agonist mode; series mostly up to 57.6 µM
The source made the active and inactive calls. Calls follow the shape of the full dose curve.
endpoint-label: activity change

CC(C)(C)CC(C)(C)N ... inactive
OCCCS ... inactive
CC(C)(C)C(O)/C=C/c1ccc2c(c1)OCO2 (configuration not stated) ... inactive
Cc1ccc2nc(-c3ccc(N)cc3)sc2c1S(=O)(=O)O ... inactive
CC(C)CCCCCCN ... inactive

Please turn your attention to the following entry.
In: Would you mind telling me what activity change value was observed for CCO/C=C1\N=C(c2ccccc2)OC1=O ?
Out: inactive

---

Test: Nuclear factor erythroid 2-related factor 2/antioxidant responsive element (Nrf2/ARE) small molecule agonists: qHTS cell viability counter screen in human keratinocytes (AID 1919968); also: nearly all actives have a fitted effect of over 55% in size
Conditions: KeratinoSens HaCaT ARE cells viability, CellTiter-Fluor, 24 h; series mostly up to 92.4 µM
Source text: U.S. Tox21 Program National Center for Advancing Translational Sciences [NCATS] Division of Preclinical Innovation [DPI] U.S. Environmental Protection Agency [EPA] National Institutes of Environmental Health Sciences [NIEHS] National Toxicology Program [NTP] U.S. Food and Drug Administration [FDA] […] The activation of the report gene under culture conditions can be detected by ONE-Glo Luciferase Assay System (Promega, Madison, WI). […]
Inconclusive results are not listed. The source made the active and inactive calls. Calls follow the shape of the dose curve; as a rule, active = well fitted cell-killing curve with a large enough effect in the repeat runs; inconclusive = weak or mixed curves, or effect the other way; inactive = flat fitted curve, though single readings scatter.
Please reply with one of these outcomes: active, inactive

In: Test call for this molecule, please: O=c1[nH]sc2ccccc12
Out: active

In: Same read-out for Cc1cccc(OCCOc2cccc(C)c2)c1 ?
Out: inactive

In: Same read-out for CC(CO)(CO)CO ?
Out: inactive

In: Same read-out for CNCCC(Oc1ccc(C(F)(F)F)cc1)c1ccccc1 (configuration not stated) ?
Out: active

In: Same read-out for CCOc1ccccc1OCCN[C@H](C)Cc1ccc(OC)c(S(N)(=O)=O)c1 ?
Out: inactive

In: Same read-out for Cc1onc(-c2ccccc2Cl)c1C(=O)N[C@@H]1C(=O)N2[C@@H]1SC(C)(C)[C@@H]2C(=O)O ?
Out: inactive

In: Same read-out for CCCCCCCCCCCCCCCC(=O)OC/C=C(C)/C=C/C=C(C)/C=C/C1=C(C)CCCC1(C)C ?
Out: inactive

---

Test: p53 small molecule agonists, cell-based qHTS assay with rat liver microsomes: qHTS cell viability counter screen (AID 1963580); also: nearly all actives have a fitted effect of over 45% in size
Conditions: p53RE-bla HCT-116 + rat microsomes, ATP viability, 16 h; series mostly up to 66 µM
Inconclusive results are not listed. Activity calls are given as the source filed them. Calls come from the whole dose curve.
Please reply with one of these outcomes: 1 (active), -1 (inactive)

Worked examples follow.
CC[C@H]1OC(=O)[C@H](C)[C@@H](O[C@H]2C[C@@](C)(OC)[C@@H](O)[C@H](C)O2)[C@H](C)[C@@H](O[C@@H]2O[C@H](C)C[C@H](N(C)C)[C@H]2O)[C@](C)(O)C[C@@H](C)CN(C)[C@H](C)[C@@H](O)[C@]1(C)O ... -1
Cc1nc(N)nc(N)c1-c1ccc(Cl)c(Cl)c1 ... -1
CN1CCC(=C2c3ccccc3CCc3cccnc32)CC1 ... -1

In: Test call for this compound, please: C/C=C/C=N/NC(=O)c1ccncc1
Out: -1

In: Same read-out for CC/C=C\CC/C=C/CO ?
Out: -1

In: Same read-out for CC(Cc1ccccc1)(NC(=O)CN)c1ccccc1 (stereo not drawn) ?
Out: -1

In: Same read-out for CN1C(CSCC(F)(F)F)Nc2cc(Cl)c(S(N)(=O)=O)cc2S1(=O)=O (stereo not drawn) ?
Out: -1

In: Same read-out for CCOC(=O)Nc1ccc2c(c1)N(C(=O)CCN1CCOCC1)c1ccccc1S2 ?
Out: -1

In: Same read-out for CN(C)c1ccc(N=NS(=O)(=O)O)cc1 ?
Out: -1
